Test system: Human immunodeficiency virus
experimentalDetails: Effective concentration against wild type virus HIV virus was determined in anti-viral assay
Assay type: functional, organism-based
appliedConditions: Human immunodeficiency virus 1
measurementName: pEC50
Give bare numbers, as −log10 of the molar value.

Provide pEC50 value for the following molecule: CC(C)CCN([C@H](CO)CCCCNC(=O)N(Cc1ccc2c(c1)OCO2)Cc1cccs1)S(=O)(=O)c1ccc(N)cc1 6.10

Provide pEC50 value for the following molecule: CC(C)CCN([C@H](CO)CCCCNC(=O)N(Cc1ccc(F)cc1)Cc1ccc2c(c1)OCO2)S(=O)(=O)c1ccc(N)cc1 5.92

Provide pEC50 value for the following molecule: COc1ccc(CN(Cc2ccc3c(c2)OCO3)C(=O)NCCCC[C@@H](CO)N(CCC(C)C)S(=O)(=O)c2ccc(N)cc2)cc1 6.15

Provide pEC50 value for the following molecule: CC(C)CCN([C@H](CO)CCCCNC(=O)N(Cc1ccccc1)Cc1ccc2c(c1)OCO2)S(=O)(=O)c1ccc(N)cc1 6.06

---
Provide pEC50 value for the following molecule: CC(C)CCN([C@H](CO)CCCCNC(=O)N(Cc1ccc([N+](=O)[O-])cc1)Cc1ccc2c(c1)OCO2)S(=O)(=O)c1ccc(N)cc1 6.07

----------
A set of compounds tested on Human immunodeficiency virus type 1 protease (Human immunodeficiency virus 1), with measured Ki:
Answers are plain numbers, in nM.

The cases that follow already have their Ki on record.
Provide Ki value for the following compound: COc1cccc(CN(Cc2ccc3c(c2)OCO3)C(=S)NCCCC[C@@H](CO)N(CCC(C)C)S(=O)(=O)c2ccc(N)cc2)c1 2.6

Provide Ki value for the following compound: COc1ccc(CN(Cc2ccc3c(c2)OCO3)C(=O)NCCCC[C@@H](CO)N(CCC(C)C)S(=O)(=O)c2ccc(N)cc2)cc1OC 3

Provide Ki value for the following compound: COc1ccc(CN(Cc2ccc3c(c2)OCO3)C(=S)NCCCC[C@@H](CO)N(CCC(C)C)S(=O)(=O)c2ccc(N)cc2)cc1OC 2.9

Please supply Ki for each of the following items, keeping them in order.
1. Cc1ccc(S(=O)(=O)N(CC(C)C)[C@@H](CCCCNC(=O)N(C(C)C)C(C)C)C(=O)O)cc1
2. CC(C)CCN([C@H](CO)CCCCNC(=O)N(Cc1ccc(F)cc1)Cc1ccc2c(c1)OCO2)S(=O)(=O)c1ccc(N)cc1
3. CC(C)CCN([C@H](CO)CCCCNC(=O)N(Cc1ccc([N+](=O)[O-])cc1)Cc1ccc2c(c1)OCO2)S(=O)(=O)c1ccc(N)cc1

[300, 4.9, 2.2]

Please supply Ki for each of the following items, keeping them in order.
1. CC(C)CCN([C@H](CO)CCCCNC(=O)N(Cc1ccccc1)Cc1ccc2c(c1)OCO2)S(=O)(=O)c1ccc(N)cc1
2. Cc1ccc(S(=O)(=O)N(CC(C)C)[C@@H](CCCCNC(=O)N(Cc2ccccc2)Cc2ccncc2)C(=O)O)cc1
3. Cc1ccc(S(=O)(=O)N(CC(C)C)[C@@H](CCCCNC(=O)NCCc2ccccc2)C(=O)O)cc1
4. CC(C)CN([C@H](CO)CCCCNC(=O)N(Cc1ccccc1)Cc1ccc(F)cc1F)S(=O)(=O)c1ccc(N)cc1

[4.1, 3.7, 204, 12]

Please supply Ki for each of the following items, keeping them in order.
1. CC(C)CN([C@H](CO)CCCCNC(=O)N(Cc1ccccc1)Cc1ccc2c(c1)OCO2)S(=O)(=O)c1ccc(N)cc1
2. CC(C)CN([C@H](CO)CCCCNC(=O)N(Cc1ccccc1)Cc1ccc(F)cc1)S(=O)(=O)c1ccc(N)cc1
3. CC(C)CN([C@H](CO)CCCCNC(=O)N(Cc1ccccc1)Cc1ccncc1)S(=O)(=O)c1ccc(N)cc1
4. CC(C)CN([C@H](CO)CCCCNC(=O)N(Cc1ccc2c(c1)OCO2)Cc1ccc2c(c1)OCO2)S(=O)(=O)c1ccc(N)cc1

1: 2.6; 2: 3.3; 3: 90; 4: 1.7

----------
A set of molecules tested on Human immunodeficiency virus type 1 protease (Human immunodeficiency virus 1), with measured Ki:
Numbers only, in nM.

Provide Ki value for the following molecule: COc1ccc(CN(Cc2ccc3c(c2)OCO3)C(=O)NCCCC[C@@H](CO)N(CCC(C)C)S(=O)(=O)c2ccc(N)cc2)cc1 2.9

Provide Ki value for the following molecule: CC(C)CN([C@H](CO)CCCCNC(=O)N(Cc1ccccc1)Cc1cccc2c1OCO2)S(=O)(=O)c1ccc(N)cc1 5.4

Provide Ki value for the following molecule: CC(C)CN([C@H](CO)CCCCNC(=O)N(Cc1ccccc1)Cc1ccccc1)S(=O)(=O)c1ccc(N)cc1 12

Provide Ki value for the following molecule: CC(C)CN([C@H](CO)CCCCNC(=O)N(Cc1ccsc1)Cc1ccc2c(c1)OCO2)S(=O)(=O)c1ccc(N)cc1 6.3

Provide Ki value for the following molecule: CC(C)CCN([C@H](CO)CCCCNC(=O)N(Cc1ccccc1)Cc1cccc2c1OCO2)S(=O)(=O)c1ccc(N)cc1 4

Provide Ki value for the following molecule: CC(C)CCN([C@H](CO)CCCCNC(=O)N(Cc1ccc(F)cc1)Cc1ccc2c(c1)OCCO2)S(=O)(=O)c1ccc(N)cc1 5.4

We now examine a further molecule.
Provide Ki value for the following molecule: CC(C)CN([C@H](CO)CCCCNC(=O)N(Cc1ccc([N+](=O)[O-])cc1)Cc1ccc2c(c1)OCO2)S(=O)(=O)c1ccc(N)cc1 2

----------
measuredOn: Human immunodeficiency virus type 1 protease (Human immunodeficiency virus 1, UniProt Q72874)
Criterion: Ki strictly less than 2 nM. Met: true. Not met: false.

Completed entries (count: 4):
Decide: Ki of COc1ccc(CN(Cc2ccc3c(c2)OCO3)C(=S)NCCCC[C@@H](CO)N(CCC(C)C)S(=O)(=O)c2ccc(N)cc2)cc1 strictly below 2 nM? false

Decide: Ki of CC(C)CCN([C@H](CO)CCCCNC(=O)N(Cc1ccc(C(F)(F)F)cc1)Cc1ccc2c(c1)OCO2)S(=O)(=O)c1ccc(N)cc1 strictly below 2 nM? false

Decide: Ki of CC(C)CCN([C@H](CO)CCCCNC(=S)N(Cc1ccc(F)cc1)Cc1ccc2c(c1)OCCO2)S(=O)(=O)c1ccc(N)cc1 strictly below 2 nM? false

Decide: Ki of Cc1ccc(S(=O)(=O)N(CC(C)C)[C@@H](CCCCNC(=O)N(Cc2ccccc2)Cc2ccccc2)C(=O)O)cc1 strictly below 2 nM? false

// next entry
Decide: Ki of CC(C)CCN([C@H](CO)CCCCNC(=O)N(Cc1ccc2c(c1)OCO2)Cc1cccs1)S(=O)(=O)c1ccc(N)cc1 strictly below 2 nM? true

----------
A set of compounds tested on Human immunodeficiency virus type 1 protease (Human immunodeficiency virus 1), with measured Ki:

The cases that follow already have their Ki on record.
Provide Ki value for the following compound: Cc1ccc(S(=O)(=O)N(CC(C)C)[C@H](CO)CCCCNC(=O)N(Cc2ccccc2)Cc2ccccc2)cc1 0.015 µM

Provide Ki value for the following compound: COc1ccc(CN(Cc2ccc3c(c2)OCO3)C(=O)NCCCC[C@@H](CO)N(CC(C)C)S(=O)(=O)c2ccc(N)cc2)cc1 0.0022 µM

Provide Ki value for the following compound: CC(C)CN([C@H](CO)CCCCNC(=O)N(Cc1ccc(C(F)(F)F)cc1)Cc1ccc2c(c1)OCO2)S(=O)(=O)c1ccc(N)cc1 0.0025 µM

Provide Ki value for the following compound: Cc1ccc(S(=O)(=O)N(CC(C)C)[C@@H](CCCCNC(=O)N(Cc2ccccc2)C(C)C)C(=O)O)cc1 0.019 µM

Provide Ki value for the following compound: COc1cccc(CN(Cc2ccc3c(c2)OCO3)C(=O)NCCCC[C@@H](CO)N(CCC(C)C)S(=O)(=O)c2ccc(N)cc2)c1 0.0022 µM

Provide Ki value for the following compound: CC(C)CN([C@H](CO)CCCCNC(=O)N(Cc1ccccc1)Cc1cccs1)S(=O)(=O)c1ccc(N)cc1 0.011 µM

Provide Ki value for the following compound: CC(C)CN([C@H](CO)CCCCNC(=O)N(Cc1ccccc1)Cc1cccnc1)S(=O)(=O)c1ccc(N)cc1 0.034 µM

Provide Ki value for the following compound: CC(C)CCN([C@H](CO)CCCCNC(=O)N(Cc1ccccc1)Cc1ccccc1)S(=O)(=O)c1ccc(N)cc1 0.0058 µM

---
Provide Ki value for the following compound: Cc1ccc(S(=O)(=O)N(CC(C)C)[C@@H](CCCCNC(=O)NCc2ccccn2)C(=O)O)cc1 > 0.3 µM

----------
Test system: Human immunodeficiency virus
experimentalDetails: Effective concentration against wild type virus HIV virus was determined in anti-viral assay
Format: functional, organism-based
appliedConditions: Human immunodeficiency virus 1
pEC50: −log10 of the molar value.
measurementName: pEC50

Provide pEC50 value for the following compound: CC(C)CCN([C@H](CO)CCCCNC(=O)N(Cc1ccc(C(F)(F)F)cc1)Cc1ccc2c(c1)OCO2)S(=O)(=O)c1ccc(N)cc1 < 5.00

Please supply pEC50 for each of the following items, keeping them in order.
1. CC(C)CCN([C@H](CO)CCCCNC(=O)N(Cc1ccccc1)Cc1ccccc1)S(=O)(=O)c1ccc(N)cc1
2. CC(C)CCN([C@H](CO)CCCCNC(=O)N(Cc1ccccc1)Cc1cccc2c1OCO2)S(=O)(=O)c1ccc(N)cc1

1. < 5.00
2. < 5.00
